# TESTED_SYSTEM: type 1 human 5α-reductase (Homo sapiens, UniProt P18405)
# Sequence (P18405 whole entry): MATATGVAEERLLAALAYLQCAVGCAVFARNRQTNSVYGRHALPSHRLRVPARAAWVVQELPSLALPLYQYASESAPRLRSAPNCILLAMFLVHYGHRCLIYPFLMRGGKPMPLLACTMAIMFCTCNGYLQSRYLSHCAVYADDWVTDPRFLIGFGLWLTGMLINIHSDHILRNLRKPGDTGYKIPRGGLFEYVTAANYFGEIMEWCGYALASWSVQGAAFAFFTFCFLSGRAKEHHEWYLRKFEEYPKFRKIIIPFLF
# ASSAY_PROCEDURE: Whole-cell assay of 5α-reductase, type 1
# Assay type: cell-based
# Set-up: expressed in transfected cells; host or cells: rat 1A cells infected with pMV7 retrovirus and selected with G418; microsomes for the cell-free assay, intact cells for the whole-cell assay
# REPORTED_CONDITIONS: rat 1A cells expressing human type 1 5α-reductase
Listing of entries alongside the reported pIC50.
Lab note — pIC50 values are minus log10 of concentrations in M.

{"columns": ["COMPOUND", "pIC50"],
 "data": [
  ["CC(Cc1ccc(O)c(O)c1)C(C)Cc1ccc(O)c(O)c1 (stereo not shown) [Nordihydroguaiaretic acid]", 4.72]
]}

Now take the following compound into account.
So for CC/C=C\C/C=C\C/C=C\CCCCCCCC(=O)O [Alpha-Linolenic Acid, Alpha-Linolenic Acid C18:3 CIS 9,12,15] , the logged pIC50 turned out to be 4.54
